Origin of values: patent US20250215104A1

Here the recorded koff is given for each entry.
targetOrSystem: T1, cynomolgus suPAR (cynomolgus, UniProt Q9GK78 23-303, limits assumed)
T1 construct: Target antigen of the off-rate screen; also called cynomolgus uPAR; cynoPLAUR-His
T1 sequence (Q9GK78 23-303 limits assumed): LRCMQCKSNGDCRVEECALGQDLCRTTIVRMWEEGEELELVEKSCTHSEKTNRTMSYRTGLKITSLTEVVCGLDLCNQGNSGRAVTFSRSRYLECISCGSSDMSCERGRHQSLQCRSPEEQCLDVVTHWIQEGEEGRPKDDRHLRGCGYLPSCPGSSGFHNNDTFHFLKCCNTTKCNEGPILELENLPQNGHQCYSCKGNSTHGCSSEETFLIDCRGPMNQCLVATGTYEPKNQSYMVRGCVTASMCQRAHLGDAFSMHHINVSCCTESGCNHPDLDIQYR
assayRemarks: BLI (Octet) off-rate screen of scFv clones
Answer as a quantity: numeral, then unit.

Known results for binders:
suPAR_DB03_E04 (scFv, V domains shown, screened as scFv) VH: QVQLVQSGAEVKKPGASVKVSCKASGYTFTGHYMHWVRQAPGQGLEWMGWIDPENGSTIYDQKFQGRVTMTRDTSTSTVYMELSSLRSEDTAVYYCARGYDVDWFVYWGQGTLVTVSS VL: DIQMTQSPSSLSASVGDRVTITCSARSSVSYMYWYQQKPGKAPKLLIYRTSNLASGVPSRFSGSGSGTDFTLTISSLQPEDFATYYCQQYHSYPPTFGGGTKVEIK ... 0.000669 s⁻¹
suPAR_DB03_A11 (scFv, V domains shown, screened as scFv) VH: QVQLVQSGAEVKKPGASVKVSCKASGYTFTSYYMHWVRQAPGQGLEWVGWMDPNSGGTSYAQKFQGRVTMTRDTSTSTVYMELSSLRSEDTAVYYCARGYDVDWFVYWGQGTLVTVSS VL: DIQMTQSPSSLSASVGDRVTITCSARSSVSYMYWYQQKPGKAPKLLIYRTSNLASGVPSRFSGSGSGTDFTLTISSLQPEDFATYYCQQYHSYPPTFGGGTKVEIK ... 7.99e-05 s⁻¹

Request: What value of koff has been recorded for this entry: suPAR_DB03_B05 (scFv, V domains shown, screened as scFv) VH: QVQLVQSGAEVKKPGASVKVSCKASGYTFTSYYMHWVRQAPGQGLEWMGWIDPENGNTIYDQKFQGRVTMTRDTSTSTVYMELSSLRSEDTAVYYCARGYDIDWFVYWGQGTLVTVSS VL: DIQMTQSPSSLSASVGDRVTITCSARQSVSYMYWYQQKPGKAPKLLIYRTSNLASGVPSRFSGSGSGTDFTLTISSLQPEDFATYYCQQYHSYPPTFGGGTKVEIK
Result: 0.000126 s⁻¹

Request: Form field: reported koff of suPAR_DB03_D01 (scFv, V domains shown, screened as scFv) VH: QVQLVQSGAEVKKPGASVKVSCKASGFNIKDYYIHWVRQAPGQGLEWMGWMDPNSGGTNYAQKFQGRVTMTRDTSTSTVYMELSSLRSEDTAVYYCARGYDVDWFVYWGQGTLVTVSS VL: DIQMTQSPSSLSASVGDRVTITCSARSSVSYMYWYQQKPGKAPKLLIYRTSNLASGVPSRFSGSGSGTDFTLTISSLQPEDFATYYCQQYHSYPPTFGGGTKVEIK
Result: 8.49e-05 s⁻¹

Request: Request the reported koff associated with suPAR_DB03_D03 (scFv, V domains shown, screened as scFv) VH: QVQLVQSGAEVKKPGASVKVSCKASGYTFTGYYIHWVRQAPGQGLEWMGWIDPENGNTIYAQKFQGRVTMTRDTSTSTVYMELSSLRSEDTAVYYCARGYDVDWFVYWGQGTLVTVSS VL: DIQMTQSPSSLSASVGDRVTITCRARQSVSYMYWYQQKPGKAPKLLIYRTSNLASGVPSRFSGSGSGTDFTLTISSLQPEDFATYYCQQYHSYPPTFGGGTKVEIK
Result: 0.000156 s⁻¹
